# Test details: Plasma concentrations of TQS-168 and TQS-621 after single oral dose 50 mg/kg in mice, three formulations
# Type: in vivo
# Test settings: male, C57BL/6, mouse, plasma, po, 50 mg/kg, mice plasma, TQS-168 50 mg/kg p.o., Group 1 (suspension, 0.5% methylcellulose in PBS), mean; read-out: Cmax

>  <Compound>
CC(C)(C)c1ccc(-c2nc3cc(O)ccc3[nH]2)cc1 [TQS-621]

>  <Cmax / ng/mL>
235

$$$$
>  <Compound>
CC(C)(C)c1ccc(-c2nc3ccccc3[nH]2)cc1 [TQS-168, 2-(4-tert-butylphenyl)-1H-benzimidazole]

>  <Cmax / ng/mL>
1120

$$$$

* * *

# Test details: Phase 1 single ascending dose (SAD) trial, plasma pharmacokinetics (Part 1)
# Test settings: male, human, in vivo, po, 180 mg, AUC(0-last), human plasma; Regimen E: 180 mg TQS-168 HME oral suspension, fasted, single dose; geometric mean

>  <Compound>
CC(C)(C)c1ccc(-c2nc3ccccc3[nH]2)cc1 [TQS-168, 2-(4-tert-butylphenyl)-1H-benzimidazole]

>  <AUC(0-t)>
360 ng·h/mL

$$$$

* * *

# Test details: Plasma concentrations of TQS-168 and TQS-621 after single oral dose 50 mg/kg in mice, three formulations
# Assay type: in vivo
# Test settings: male, C57BL/6, mouse, plasma, po, 50 mg/kg, mice, 50 mg/kg p.o., Group 1 (suspension, methylcellulose in PBS), 12 hr, mean; read-out: Calculated Concentration in plasma
# Protocol: In a second experiment, mice were administered 50 mg/kg TQS-168 by oral gavage. For Group 1, TQS-168 was prepared at a concentration of 5.0 mg/mL in a suspension with […] in PBS. For Group 2, TQS-168 was prepared at a concentration of 5.0 mg/mL as a solution in 10 polyethylene glycol (PEG) 400|30 Kleptose (Roquete)|60% water. […] Plasma concentrations of TQS-168 and TQS-621 were measured overtime.

>  <Compound>
CC(C)(C)c1ccc(-c2nc3ccccc3[nH]2)cc1 [TQS-168, 2-(4-tert-butylphenyl)-1H-benzimidazole]

>  <Readout units>
ng/mL

>  <concentration at 12 h>
187

$$$$

* * *

# Test details: Phase 1 single ascending dose (SAD) trial, plasma pharmacokinetics (Part 1)
# Test settings: male, human, in vivo, po, 270 mg, AUC(0-24), human plasma; Regimen H: 270 mg TQS-168 SDD oral suspension, fasted, single dose; geometric mean
Readout type: AUC(0-t) (ng·h/mL)

>  <Structure notation>
CC(C)(C)c1ccc(-c2nc3ccccc3[nH]2)cc1

>  <Readout type>
AUC(0-t)

>  <Readout units>
ng·h/mL

>  <Recorded measurement>
736

$$$$

* * *

# Test details: Plasma concentrations of TQS-168 and TQS-621 after single oral dose 50 mg/kg in mice, three formulations
# Assay type: in vivo
# Test settings: male, C57BL/6, mouse, plasma, po, 50 mg/kg, mice, 50 mg/kg p.o., Group 1 (suspension, methylcellulose in PBS), 1 hr, mean; read-out: Calculated Concentration in plasma

>  <Compound>
CC(C)(C)c1ccc(-c2nc3ccccc3[nH]2)cc1 [TQS-168, 2-(4-tert-butylphenyl)-1H-benzimidazole]

>  <concentration at 1 h [ng/mL]>
1100

$$$$

Numbers sourced from patent US20250281462A1.
